- SUBJECT_OF_TEST: human PDE10A2 (Homo sapiens (Human), UniProt Q9Y233)
- Sequence (Q9Y233 267-1055): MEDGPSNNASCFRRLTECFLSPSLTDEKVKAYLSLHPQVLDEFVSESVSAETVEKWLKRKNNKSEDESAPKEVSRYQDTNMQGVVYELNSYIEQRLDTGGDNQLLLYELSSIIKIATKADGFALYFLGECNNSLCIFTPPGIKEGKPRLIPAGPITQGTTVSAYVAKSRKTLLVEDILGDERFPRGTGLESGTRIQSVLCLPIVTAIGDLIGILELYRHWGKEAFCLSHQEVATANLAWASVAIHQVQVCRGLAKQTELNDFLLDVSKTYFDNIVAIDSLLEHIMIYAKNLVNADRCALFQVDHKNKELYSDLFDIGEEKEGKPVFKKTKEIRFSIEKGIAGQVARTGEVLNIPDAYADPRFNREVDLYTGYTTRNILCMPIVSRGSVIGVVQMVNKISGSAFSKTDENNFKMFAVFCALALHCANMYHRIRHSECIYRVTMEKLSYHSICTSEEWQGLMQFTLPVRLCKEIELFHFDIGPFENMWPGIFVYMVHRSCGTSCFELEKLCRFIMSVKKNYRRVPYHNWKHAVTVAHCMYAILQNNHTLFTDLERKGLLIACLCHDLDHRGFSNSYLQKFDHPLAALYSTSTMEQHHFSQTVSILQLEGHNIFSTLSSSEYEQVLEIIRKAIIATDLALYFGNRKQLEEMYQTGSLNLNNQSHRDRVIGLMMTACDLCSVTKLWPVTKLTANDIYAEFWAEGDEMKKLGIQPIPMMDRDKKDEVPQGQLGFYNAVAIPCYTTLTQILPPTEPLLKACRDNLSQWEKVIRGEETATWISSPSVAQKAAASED
- ASSAY_TEXT: PDE10 fluorescence polarization (IMAP FP) inhibition assay
- CONDITION_CONTEXT: human PDE10A2 from transfected AD293 cell lysate; FAM-labeled cAMP 50 nM; room temperature; read-out: PDE10A Ki
Simple rule here: Ki less than 0.6 nM is criterion met, otherwise criterion not met.

{"columns": ["COMPOUND", "CLASS_LABEL"],
 "data": [
  ["Cc1ncc(-c2cnn(C)c2)c(OC[C@H]2C[C@@H]2c2ccn(C)n2)n1", "criterion not met"]
]}

Now examine the next entry.
Hello, is Ki of the following molecule strictly smaller than 0.6 nM? `COc1ccc([C@H]2C[C@@H]2COc2nc(C)ncc2-c2nnc(C3CC3)s2)nc1`
criterion not met

----------
Exercise: state measured Ki for each of the compounds provided.
- SUBJECT_OF_TEST: human PDE10A2 (Homo sapiens (Human), UniProt Q9Y233)
- ASSAY_TEXT: PDE10 fluorescence polarization (IMAP FP) inhibition assay
- CONDITION_CONTEXT: human PDE10A2 from transfected AD293 cell lysate; FAM-labeled cAMP 50 nM; room temperature; read-out: PDE10A Ki
Numbers only, in nM.

{"columns": ["COMPOUND", "EXPERIMENTAL_READOUT", "SCALE_UNIT", "OBSERVED_RESULT"],
 "data": [
  ["COc1ccc([C@H]2C[C@@H]2COc2nc(C)ncc2/C=C/c2cccnc2)nc1", "Ki", "nM", 0.6],
  ["COc1ccc([C@H]2C[C@@H]2COc2ncc(C)cc2-c2cnn3c2CCC3)nc1", "Ki", "nM", 0.34],
  ["COc1ccc([C@H]2C[C@@H]2COc2nc(C)ncc2CN2CCC(F)(F)C2)nc1", "Ki", "nM", 60.8],
  ["COc1ccc([C@H]2C[C@@H]2COc2nc(C)c(C)nc2-c2cncc(OC)c2)nc1", "Ki", "nM", 0.22],
  ["COc1ccc([C@H]2C[C@@H]2COc2nc(C)ncc2-c2cnn(C)c2)nc1", "Ki", "nM", 0.25],
  ["COc1ccc([C@H]2C[C@@H]2COc2nc(C)ncc2-c2csc(C)n2)nc1", "Ki", "nM", 0.78]
]}

Now for another entry.
What value of Ki has been reported for the following compound? `Cc1ncc(-c2c(C)nn(C)c2C)c(OC[C@H]2C[C@@H]2c2ccc3ccccc3n2)n1`
0.002
